# STUDY SYSTEM: GABA-A receptor; alpha-2/beta-3/gamma-2 (Homo sapiens, UniProt P18507+P28472+P47869)
# Sequence (P18507 whole entry): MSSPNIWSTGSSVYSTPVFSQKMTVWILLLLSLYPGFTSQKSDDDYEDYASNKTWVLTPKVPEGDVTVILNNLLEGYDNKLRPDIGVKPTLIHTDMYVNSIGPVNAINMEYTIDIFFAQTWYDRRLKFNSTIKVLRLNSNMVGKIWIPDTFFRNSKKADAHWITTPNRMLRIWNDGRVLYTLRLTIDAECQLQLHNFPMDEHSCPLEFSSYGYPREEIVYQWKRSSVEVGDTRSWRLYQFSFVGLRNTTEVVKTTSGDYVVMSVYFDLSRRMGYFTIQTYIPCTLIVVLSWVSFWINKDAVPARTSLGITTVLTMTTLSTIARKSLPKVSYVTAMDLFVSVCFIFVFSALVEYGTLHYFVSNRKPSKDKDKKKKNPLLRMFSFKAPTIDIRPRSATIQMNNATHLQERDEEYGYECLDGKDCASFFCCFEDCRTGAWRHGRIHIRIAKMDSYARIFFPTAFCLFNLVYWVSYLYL
# Sequence (P28472 whole entry): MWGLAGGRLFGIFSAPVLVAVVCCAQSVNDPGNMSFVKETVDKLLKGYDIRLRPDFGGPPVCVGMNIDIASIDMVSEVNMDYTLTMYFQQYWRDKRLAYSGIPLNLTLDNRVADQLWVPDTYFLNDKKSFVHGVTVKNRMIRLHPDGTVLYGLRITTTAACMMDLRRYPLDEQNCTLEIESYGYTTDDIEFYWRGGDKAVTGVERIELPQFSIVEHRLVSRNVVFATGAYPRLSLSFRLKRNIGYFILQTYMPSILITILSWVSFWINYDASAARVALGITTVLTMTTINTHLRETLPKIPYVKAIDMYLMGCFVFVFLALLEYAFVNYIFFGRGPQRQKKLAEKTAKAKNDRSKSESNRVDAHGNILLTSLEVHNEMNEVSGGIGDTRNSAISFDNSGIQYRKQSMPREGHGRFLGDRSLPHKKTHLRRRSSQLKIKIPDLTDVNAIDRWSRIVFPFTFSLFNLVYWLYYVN
# Sequence (P47869 whole entry): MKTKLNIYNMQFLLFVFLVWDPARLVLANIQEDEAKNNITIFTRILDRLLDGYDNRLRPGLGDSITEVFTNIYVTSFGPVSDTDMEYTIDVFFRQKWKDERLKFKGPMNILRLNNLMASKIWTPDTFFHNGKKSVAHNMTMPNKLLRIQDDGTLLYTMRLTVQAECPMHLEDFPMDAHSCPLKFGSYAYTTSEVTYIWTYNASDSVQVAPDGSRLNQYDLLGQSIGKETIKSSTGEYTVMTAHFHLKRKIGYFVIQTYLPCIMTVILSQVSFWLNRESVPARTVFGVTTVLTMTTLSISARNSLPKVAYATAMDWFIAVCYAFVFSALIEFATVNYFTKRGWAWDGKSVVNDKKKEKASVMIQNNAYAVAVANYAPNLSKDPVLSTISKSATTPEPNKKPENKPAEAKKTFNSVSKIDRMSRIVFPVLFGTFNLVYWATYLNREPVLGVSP
# EXPERIMENTAL PROTOCOL: Displacement of [3H]-Ro 15-1788 from Homo sapiens (human) recombinant GABAA alpha2beta3gamma2 receptor expressed in Ltk- cells after 1 hr by liquid scintillation counting
Listing of entries alongside the reported pKi.
pKi here is simply -log10 of the concentration when that concentration is written in mol/L.

CC(C)(C)OC(=O)c1ncn2c1[C@@H]1CCCN1C(=O)c1cc(-c3cccs3)ccc1-2	6.92

Pending compound:
Query: Which pKi reading was recorded for the compound C#Cc1ccc2c(c1)C(=O)N1CCC[C@H]1c1c(C(=O)OCC(F)(F)F)ncn1-2 ?
Result: 6.76
